# Tested on: MOLT-4
# protocol.details: In vitro inhibitory activity against acute lymphoblastic leukemia (MOLT4) cell line.
# Assay type: functional, cell-based
# test.conditions: Homo sapiens
Under this convention, condition met denotes IC50 strictly below 3 µM and condition not met denotes IC50 at or above 3 µM.

smiles | label.class
O=C(CCCc1ccc(N(CCCl)CCCl)cc1)OCCN1C(=O)C=CC1=O | condition not met
C/C(=N\NC(=O)CCCc1ccc(N(CCCl)CCCl)cc1)c1cccc(N2C(=O)C=CC2=O)c1 | condition not met
O=C(CCCc1ccc(N(CCCl)CCCl)cc1)N/N=C/CN1C(=O)C=CC1=O | condition met
O=C(CCCc1ccc(N(CCCl)CCCl)cc1)N/N=C/c1cccc(N2C(=O)C=CC2=O)c1 | condition not met
O=C(O)CCCc1ccc(N(CCCl)CCCl)cc1 | condition not met
O=C(CCCc1ccc(N(CCCl)CCCl)cc1)Oc1cccc(N2C(=O)C=CC2=O)c1 | condition not met
